# OD450 per record follows
- test.target: T1, human MSLN-R3-his protein (human, UniProt Q13421 487-598)
- T1 construct: Self-made in HEK293E cells; also called human MSLN-R3 protein; hMSLN-R3-his; not shown: His tag
- T1 sequence (Q13421 495-606): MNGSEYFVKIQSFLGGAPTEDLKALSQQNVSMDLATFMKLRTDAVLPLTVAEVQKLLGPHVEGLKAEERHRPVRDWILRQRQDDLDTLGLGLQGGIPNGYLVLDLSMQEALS
- assay.overview: ELISA on coated antigen, antibody 10 nM
A number alone suffices; assume OD450.

The cases that follow already have their OD450 on record.
binder="S009-F2.13.3 (antibody, human IgG1, kappa, V domains shown, Human-murine chimeric antibody: murine VH/VL on human IgG1 heavy and kappa light constant regions) VH: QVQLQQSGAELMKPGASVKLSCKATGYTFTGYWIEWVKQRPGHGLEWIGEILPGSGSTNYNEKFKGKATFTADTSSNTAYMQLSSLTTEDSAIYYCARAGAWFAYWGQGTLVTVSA VL: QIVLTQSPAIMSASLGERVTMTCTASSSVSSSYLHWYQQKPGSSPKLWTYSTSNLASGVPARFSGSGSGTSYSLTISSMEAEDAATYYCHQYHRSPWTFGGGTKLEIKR" obs_value=0.06
binder="S009-F2.38.12 (antibody, human IgG1, kappa, V domains shown, Human-murine chimeric antibody: murine VH/VL on human IgG1 heavy and kappa light constant regions) VH: QVQLQQPGTELVKPGASVKLSCKASGYTFTSYWMHWVKQRPGQGLEWIGNINPSNGGTNYNEKIKNKATLTVDKSSSTAYMQLSSLTSEDSAVYYCARWNYYGNYPFDYWGQGTTLTVSS VL: DIVMTQSQKFMSTTVGDRVSITCKASQNVGTAVAWYQQKPGQSPKLLIYSASNRYTGVPDRFTGSGSGTDFTLTISNMQSEDLADYFCQQYSSYPLTFGAGTKLELKR" obs_value=0.05
binder="S009-F2.39.3 (antibody, human IgG1, kappa, V domains shown, Human-murine chimeric antibody: murine VH/VL on human IgG1 heavy and kappa light constant regions) VH: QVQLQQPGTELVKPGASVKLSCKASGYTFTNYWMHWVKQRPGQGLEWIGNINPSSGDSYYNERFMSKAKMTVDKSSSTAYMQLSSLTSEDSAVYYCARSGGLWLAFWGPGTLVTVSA VL: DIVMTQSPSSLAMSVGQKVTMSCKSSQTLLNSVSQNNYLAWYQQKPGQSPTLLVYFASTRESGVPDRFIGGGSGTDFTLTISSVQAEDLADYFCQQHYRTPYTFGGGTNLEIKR" obs_value=0.98
binder="S009-F2-56.12 (antibody, human IgG1, kappa, V domains shown, Human-murine chimeric antibody: murine VH/VL on human IgG1 heavy and kappa light constant regions) VH: DVQLQESGPGMVKPSQSLSLTCTVTGYSITSGYDWHWIRHFPGNKLEWMGYISYSGSTNYNPSLKSRISITHDTSKNHFFLKLKSVTTEDTATYYCARGTGPDYWGQGTTLTVSS VL: DIVMTQSQKFMSTSVGDRVSITCKASQNVRTAVAWYQQKPGQSPKALIHLPSNRHTGVPDRFTGSGSGTDFTLTISNVQSEDLADYFCLQHWNYPLTFGGGTKLEIKR" obs_value=0.07
binder="S009-F2.21.4 (antibody, human IgG1, kappa, V domains shown, Human-murine chimeric antibody: murine VH/VL on human IgG1 heavy and kappa light constant regions) VH: EVQLQQSGPELVKPGASVKIPCKASGYTFTDYNMDWVKQSHGKSLEWIGDINPNNGGSIYNQRFKGKATLTVDKSSSTAYMELRSLTSEDSAVYYCARRAYYSTGYFDVWGTGTTVTVSS VL: QIVLTQSPALMSASPGEKVTITCSASSSISYMHWFQQKPGTSPKLWIYSTSTLASGVPARFSGSGSGTSYSLTISRMEAEDTATYYCQQRSSYPPTFGGGTKLEIKR" obs_value=0.05
binder="S009-F2.23.12 (antibody, human IgG1, kappa, V domains shown, Human-murine chimeric antibody: murine VH/VL on human IgG1 heavy and kappa light constant regions) VH: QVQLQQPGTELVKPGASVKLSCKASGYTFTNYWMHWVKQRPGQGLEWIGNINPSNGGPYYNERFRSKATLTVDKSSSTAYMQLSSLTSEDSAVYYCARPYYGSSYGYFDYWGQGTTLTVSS VL: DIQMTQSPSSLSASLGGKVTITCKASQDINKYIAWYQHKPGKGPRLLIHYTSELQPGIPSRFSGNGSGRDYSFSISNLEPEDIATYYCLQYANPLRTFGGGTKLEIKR" obs_value=1.4
binder="S009-F2.47.1 (antibody, human IgG1, kappa, V domains shown, Human-murine chimeric antibody: murine VH/VL on human IgG1 heavy and kappa light constant regions) VH: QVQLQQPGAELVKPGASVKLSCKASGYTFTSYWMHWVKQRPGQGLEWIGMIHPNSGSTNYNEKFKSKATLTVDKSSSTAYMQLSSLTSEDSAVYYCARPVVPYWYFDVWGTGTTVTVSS VL: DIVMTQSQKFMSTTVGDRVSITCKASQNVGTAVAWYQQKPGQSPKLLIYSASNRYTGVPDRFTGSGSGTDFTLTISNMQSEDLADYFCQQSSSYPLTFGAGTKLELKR" obs_value=0.05
binder="S009-F2.16.10 (antibody, human IgG1, kappa, V domains shown, Human-murine chimeric antibody: murine VH/VL on human IgG1 heavy and kappa light constant regions) VH: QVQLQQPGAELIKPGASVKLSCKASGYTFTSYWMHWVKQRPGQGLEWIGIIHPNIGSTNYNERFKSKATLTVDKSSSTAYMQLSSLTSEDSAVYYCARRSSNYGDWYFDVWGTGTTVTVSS VL: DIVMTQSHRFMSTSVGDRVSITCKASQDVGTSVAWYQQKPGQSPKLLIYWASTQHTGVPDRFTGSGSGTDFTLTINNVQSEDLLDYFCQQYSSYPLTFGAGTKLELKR" obs_value=0.05

Ask | Dear colleague, I am looking for the recorded OD450 of the following binder: S009-F2.58.8 (antibody, human IgG1, kappa, V domains shown, Human-murine chimeric antibody: murine VH/VL on human IgG1 heavy and kappa light constant regions) VH: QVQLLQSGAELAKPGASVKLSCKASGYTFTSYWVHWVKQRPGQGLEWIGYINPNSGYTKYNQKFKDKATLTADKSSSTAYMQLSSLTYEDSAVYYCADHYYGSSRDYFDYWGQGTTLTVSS VL: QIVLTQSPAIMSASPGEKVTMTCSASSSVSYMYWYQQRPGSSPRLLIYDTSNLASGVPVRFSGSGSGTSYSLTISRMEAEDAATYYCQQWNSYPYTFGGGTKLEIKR
Reply | 0.05

Just for reference, patent US20250250357A1 is where these values come from.
